Would you mind telling me the reported PII in degradation product by alpha-amylase of each entry?
test system: pig pancreas alpha-amylase; assay: Degradation by pig pancreas alpha-amylase; type: biochemical; settings: pH6.9, 37° C., 18 hours
# output: bare number, implied unit %

**Query** Report PII in degradation product by alpha-amylase for `OC[C@H]1O[C@H](O[C@H]2O[C@H](CO)[C@@H](O[C@H]3O[C@H](CO)[C@@H](O)[C@H](O)[C@H]3O)[C@H](O)[C@H]2O)[C@H](O)[C@@H](O)[C@@H]1O` please.
**Result** 0

**Query** What does the record list as PII in degradation product by alpha-amylase for `OC[C@H]1O[C@H](O[C@H]2O[C@H](CO)[C@@H](O[C@H]3O[C@H](CO)[C@@H](O[C@H]4O[C@H](CO)[C@@H](O[C@H]5O[C@H](CO)[C@@H](O[C@H]6O[C@H](CO)[C@@H](O[C@H]7O[C@H](CO)[C@@H](O)[C@H](O)[C@H]7O)[C@H](O)[C@H]6O)[C@H](O)[C@H]5O)[C@H](O)[C@H]4O)[C@H](O)[C@H]3O)[C@H](O)[C@H]2O)[C@H](O)[C@@H](O)[C@@H]1O` ?
**Result** 44.9

**Query** Record request: PII in degradation product by alpha-amylase value, item `OC[C@H]1O[C@H](O[C@H]2O[C@H](CO)[C@@H](O[C@H]3O[C@H](CO)[C@@H](O[C@H]4O[C@H](CO)[C@@H](O[C@H]5O[C@H](CO)[C@@H](O[C@H]6O[C@H](CO)[C@@H](O)[C@H](O)[C@H]6O)[C@H](O)[C@H]5O)[C@H](O)[C@H]4O)[C@H](O)[C@H]3O)[C@H](O)[C@H]2O)[C@H](O)[C@@H](O)[C@@H]1O`
**Result** 3.3

---

target: trehalose-releasing enzyme (Rhizobium sp. M-11); construct: M-11, about 58-68 kDa; format: biochemical, Rhizobium species M-11; conditions: trehalose-releasing enzyme, 48 h, pH 7
Sequence (Q53238 whole entry): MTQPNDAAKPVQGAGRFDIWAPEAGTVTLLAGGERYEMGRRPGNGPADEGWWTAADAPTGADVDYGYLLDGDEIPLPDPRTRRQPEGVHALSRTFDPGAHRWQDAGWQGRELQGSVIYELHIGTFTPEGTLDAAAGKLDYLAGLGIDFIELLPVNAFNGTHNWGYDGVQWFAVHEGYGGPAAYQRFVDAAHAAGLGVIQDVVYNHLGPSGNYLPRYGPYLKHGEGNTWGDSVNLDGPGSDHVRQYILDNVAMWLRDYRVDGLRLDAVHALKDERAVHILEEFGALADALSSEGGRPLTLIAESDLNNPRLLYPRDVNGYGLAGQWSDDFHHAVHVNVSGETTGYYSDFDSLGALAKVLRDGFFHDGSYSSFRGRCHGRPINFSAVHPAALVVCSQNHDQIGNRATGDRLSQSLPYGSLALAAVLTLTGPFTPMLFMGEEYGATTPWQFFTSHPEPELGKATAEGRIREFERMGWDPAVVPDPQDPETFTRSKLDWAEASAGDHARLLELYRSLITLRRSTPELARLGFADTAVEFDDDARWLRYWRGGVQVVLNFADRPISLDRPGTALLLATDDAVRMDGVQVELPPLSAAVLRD
Measured metric: Composition: residual substrate (%)
Form entry: value (%) — number only.

**Query** Reported Composition: residual substrate, molecule `OC[C@H]1O[C@H](O[C@H]2O[C@H](CO)[C@@H](O[C@H]3O[C@H](CO)[C@@H](O[C@H]4O[C@H](CO)[C@@H](O[C@H]5O[C@H](CO)[C@@H](O)[C@H](O)[C@H]5O)[C@H](O)[C@H]4O)[C@H](O)[C@H]3O)[C@H](O)[C@H]2O)[C@H](O)[C@@H](O)[C@@H]1O` : ____
**Result** 0.5

**Query** Which Composition: residual substrate is listed for OC[C@H]1O[C@H](O[C@H]2[C@H](O)[C@@H](O)[C@@H](O[C@H]3[C@H](O)[C@@H](O)C(O)O[C@@H]3CO)O[C@@H]2CO)[C@H](O)[C@@H](O)[C@@H]1O (stereo partly drawn) [Maltotriose, maltotriose, reference compound] ?
**Result** 100

**Query** Would you kindly share the measured Composition: residual substrate for OC[C@H]1O[C@H](O[C@H]2[C@H](O)[C@@H](O)[C@@H](O[C@H]3[C@H](O)[C@@H](O)[C@@H](O[C@H]4[C@H](O)[C@@H](O)[C@@H](O[C@H]5[C@H](O)[C@@H](O)[C@@H](O[C@H]6[C@H](O)[C@@H](O)C(O)O[C@@H]6CO)O[C@@H]5CO)O[C@@H]4CO)O[C@@H]3CO)O[C@@H]2CO)[C@H](O)[C@@H](O)[C@@H]1O (stereo partly drawn) [Maltohexaose, maltohexaose, reference compound] ?
**Result** 100

**Query** Query (molecule): OC[C@H]1O[C@H](O[C@H]2[C@H](O)[C@@H](O)[C@@H](O[C@H]3[C@H](O)[C@@H](O)[C@@H](O[C@H]4[C@H](O)[C@@H](O)C(O)O[C@@H]4CO)O[C@@H]3CO)O[C@@H]2CO)[C@H](O)[C@@H](O)[C@@H]1O (stereo partly drawn) [Maltotetraose, maltotetraose, reference compound] ; field requested: Composition: residual substrate
**Result** 100

**Query** Reported Composition: residual substrate for `OC[C@H]1O[C@H](O[C@H]2O[C@H](CO)[C@@H](O[C@H]3O[C@H](CO)[C@@H](O[C@H]4O[C@H](CO)[C@@H](O[C@H]5O[C@H](CO)[C@@H](O[C@H]6O[C@H](CO)[C@@H](O)[C@H](O)[C@H]6O)[C@H](O)[C@H]5O)[C@H](O)[C@H]4O)[C@H](O)[C@H]3O)[C@H](O)[C@H]2O)[C@H](O)[C@@H](O)[C@@H]1O` : what is it?
**Result** 0.3

**Query** Which measured Composition: residual substrate value corresponds to `OC[C@H]1O[C@H](O[C@H]2O[C@H](CO)[C@@H](O[C@H]3O[C@H](CO)[C@@H](O[C@H]4O[C@H](CO)[C@@H](O)[C@H](O)[C@H]4O)[C@H](O)[C@H]3O)[C@H](O)[C@H]2O)[C@H](O)[C@@H](O)[C@@H]1O` ?
**Result** 11.3

Cited source for all entries: patent US5919668A
